# method: qHTS assay for small molecule agonists of retinoid X receptor alpha signaling (AID 588544)
# assay-context: HEK293T RXRa-UAS-bla, beta-lactamase reporter, 18 h; 530 nm emission
Results filed as inconclusive are left out.
Recorded max response values for a group of molecules are listed next.
Use % as the unit, but write only the number.

# molecule, endpoint-label, measurement-units, measured
rows = [
    ("CC(=C/C=C/C(C)=C/C=C/C=C(C)/C=C/C=C(C)/C=C/C(=O)O)/C=C/C(=O)O", "max response", "%", -15.4),
    ("CCC(=O)/C=C/C1C(C)=CCCC1(C)C (stereo not given)", "max response", "%", -9.1),
    ("Nc1ccccc1[N+](=O)[O-]", "max response", "%", -4.62),
    ("CCOC(=O)OCC", "max response", "%", -14.7),
    ("CC(C)Cc1nccs1", "max response", "%", -0.474),
]

Query: max response; subject: Cc1ccc(CO)cc1
-4.09

Query: max response; subject: O=[N+]([O-])c1cccc(C(F)(F)F)c1
-15.5

Query: max response; subject: O=[N+]([O-])c1cc(C(F)(F)F)ccc1Cl
-4.02

* * *

# method: Cell Viability - LYMP2-021 (AID 974);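 also: compound exposure lasts 24 hours at 37 °C; % is scaled to controls: 0 for no effect and ±100 for the full control effect; nearly all actives have a fitted effect of over 55% in size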
# assay-context: LYMP2-021 lymphoblastoid cells viability; series mostly up to 92.2 µM
Inconclusive results are not listed. The source made the active and inactive calls. The call rests on the fitted dose curve; in most records, active means well fitted cell-killing curve with a large enough effect; inconclusive means small, poorly fitted or top-dose-only effect; inactive means flat fitted curve, though single readings scatter.
endpoint-label: outcome

Example cases with answers are listed next.
# compound, measured
data = [
    ("C/C=C1\\CC2C=CC1C2 (stereo not given)", "inactive"),
    ("NS(=O)(=O)O", "inactive"),
    ("O=Cc1ccc(C(=O)O)cc1", "inactive"),
    ("C=CCCC", "inactive"),
    ("FC(F)(F)c1cccc(Cl)c1", "inactive"),
]

Query: outcome; subject: c1ccsc1
inactive

Query: outcome; subject: Nc1cc(Cl)c(N)c(Cl)c1
inactive

Query: outcome; subject: O=Cc1ccc(CO)o1
inactive

Query: outcome; subject: CC(C)(O)CCC(C)(C)O
inactive

Query: outcome; subject: CNc1ccccc1
inactive

* * *

# method: qHTS assay for small molecule activators of the nuclear factor-kappa B (NF-kB) signaling pathway (AID 651749); also: % of control where 0% means no effect
# assay-context: NF-kB-bla ME-180 cells, beta-lactamase FRET ratio, 16 h; stronger effect = higher value
Results filed as inconclusive are left out.
endpoint-label: activation (%)
Use % as the unit, but write only the number.

Example cases with answers are listed next.
# compound-smiles, measurement-units, activation
data = [
    ("C1COC1", "%", -0.645),
    ("C=C(C)C(=O)OCC(C)C", "%", 1.27),
    ("O=[N+]([O-])c1ccccc1CCO", "%", -0.881),
    ("C=C(C)OC(C)=O", "%", -0.753),
    ("O=C1NC(=O)c2cc([N+](=O)[O-])ccc21", "%", 0.0192),
    ("O=C(Cl)c1cccc([N+](=O)[O-])c1", "%", -0.912),
]

Query: activation; subject: Nc1ccc(Cl)cc1[N+](=O)[O-]
-1.3

Query: activation; subject: COc1ccc(OC)cc1
-2.07

Query: activation; subject: N#Cc1ccccc1
0.786

Query: activation; subject: CO[Si](CCCNCCC[Si](OC)(OC)OC)(OC)OC
0.71

Query: activation; subject: ON=C1CCCCC1
-0.0489

Query: activation; subject: CCOc1cccc(N)c1
-0.866

Query: activation; subject: Nc1ccccc1S(=O)(=O)O
-0.0968

Query: activation; subject: Cc1c(C(=O)O)cccc1[N+](=O)[O-]
0.0023

Query: activation; subject: O=C1OC(=O)c2cc([N+](=O)[O-])ccc21
-0.857

Query: activation; subject: CC(C)N(C)C
-1.35

* * *

# method: qHTS assay for small molecule agonists of the antioxidant response element (ARE) signaling pathway (AID 651741); as to activation: % of control where 0% means no effect
# assay-context: HepG2 ARE-bla reporter, beta-lactamase FRET ratio, 16 h; series mostly up to 96 µM
Records with an inconclusive call do not appear. Activity calls are given as the source filed them. Calls come from the whole dose curve; as a rule, active = well fitted activation curve with a large enough effect in the signal ratio; inconclusive = small, poorly fitted or top-dose-only effect, or effect the other way, or a change in a side signal; inactive = flat fitted curve, though single readings scatter; the % refers to the signal ratio.
API: response.call in active, inactive

Some entries whose results are on file:
# compound, assigned-class
data = [
    ("NCCCCCCN", "inactive"),
    ("BrC/C=C/CBr", "active"),
    ("COC(=O)CC#N", "inactive"),
    ("CC(=O)OC(C)C", "inactive"),
    ("CC/C=C1/OC(=O)c2ccccc21", "inactive"),
    ("Cc1cccc(Br)c1", "inactive"),
    ("CCOCC(=O)O", "inactive"),
    ("CC1=C(/C=C/C(C)=C/C=C/C(C)=C\\C=O)C(C)(C)CCC1", "active"),
    ("C=C(C)OC(C)=O", "inactive"),
    ("Cc1ccccc1Br", "inactive"),
]

// outcome(item) with item = OC(CCl)CCl
inactive

// outcome(item) with item = CC(=O)C1(C)CC2=C(CCCC2(C)C)CC1C (configuration not stated)
inactive

// outcome(item) with item = CC(=O)CCc1ccccc1
inactive

// outcome(item) with item = O=C1OC(=O)c2c(Cl)c(Cl)c(Cl)c(Cl)c21
inactive

// outcome(item) with item = O=C(O)CCSSCCC(=O)O
inactive

// outcome(item) with item = Cc1cc(C)cc([N+](=O)[O-])c1
inactive

// outcome(item) with item = CC(=O)OCCC(C)C
inactive

* * *

# measured-target: Nuclear receptor subfamily 1 group I member 2 (Rattus norvegicus) (UniProt Q9R1A7)
# Sequence (Q9R1A7 whole entry, looked up): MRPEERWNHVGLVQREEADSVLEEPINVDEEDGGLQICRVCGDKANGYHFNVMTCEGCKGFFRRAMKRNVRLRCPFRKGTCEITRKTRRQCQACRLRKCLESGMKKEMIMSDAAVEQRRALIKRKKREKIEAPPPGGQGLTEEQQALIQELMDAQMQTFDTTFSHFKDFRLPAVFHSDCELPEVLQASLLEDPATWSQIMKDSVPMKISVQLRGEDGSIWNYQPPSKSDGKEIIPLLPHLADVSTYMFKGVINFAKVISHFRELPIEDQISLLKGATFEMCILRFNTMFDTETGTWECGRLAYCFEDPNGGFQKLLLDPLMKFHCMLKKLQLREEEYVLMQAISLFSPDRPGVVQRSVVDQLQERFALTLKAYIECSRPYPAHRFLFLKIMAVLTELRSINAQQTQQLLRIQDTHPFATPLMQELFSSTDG
# method: qHTS assay for small molecule activators of the rat pregnane X receptor (rPXR) signaling pathway (AID 651751); also: 0% is about no effect
# assay-context: rPXR reporter cells, luciferase (One-Glo), 24 h
Recorded max response values for a group of compounds are listed next.
Use % as the unit, but write only the number.

# compound, measured-target, max response / %
data = [
    ("c1ccc2n[nH]nc2c1", "Nuclear receptor subfamily 1 group I member 2 (Rattus norvegicus) (UniProt Q9R1A7)", -4.36),
    ("CCCCC=O", "Nuclear receptor subfamily 1 group I member 2 (Rattus norvegicus) (UniProt Q9R1A7)", -1.64),
    ("Cc1cccc([N+](=O)[O-])c1C(=O)O", "Nuclear receptor subfamily 1 group I member 2 (Rattus norvegicus) (UniProt Q9R1A7)", 12.6),
    ("Cc1ccc(C)c(O)c1", "Nuclear receptor subfamily 1 group I member 2 (Rattus norvegicus) (UniProt Q9R1A7)", 4.49),
    ("CCCCCCC(=O)O", "Nuclear receptor subfamily 1 group I member 2 (Rattus norvegicus) (UniProt Q9R1A7)", -2.97),
    ("C[C@@H]1CC2(OC[C@]3(C)O[C@H]23)O[C@H]2C[C@@]3(C)[C@@H]4CC[C@H]5C(C)(C)C(O[C@@H]6OC[C@@H](O)[C@H](O)[C@H]6O)CC[C@@]56C[C@@]46CC[C@]3(C)[C@@H]12 (stereo not given in full)", "Nuclear receptor subfamily 1 group I member 2 (Rattus norvegicus) (UniProt Q9R1A7)", 2.43),
]

Query: max response; subject: O=C1CCC(=O)O1
-4.75

Query: max response; subject: Cc1ccco1
-0.023

* * *

# method: Cell Viability - LYMP2-011 (AID 969);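 also: cells exposed to compound for 24 hours; 0% = DMSO only and full inhibition = 92 µM tetraoctylammonium bromide; nearly all actives have a fitted effect of over 60% in size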
# assay-context: LYMP2-011 lymphoblastoid cells viability; series mostly up to 92.2 µM
Inconclusive results are not listed. Active and inactive are the calls of the source. The call rests on the fitted dose curve; in most records, active means well fitted cell-killing curve with a large enough effect; inconclusive means small, poorly fitted or top-dose-only effect; inactive means flat fitted curve, though single readings scatter.
API: response.call in active, inactive

# compound, assigned-class
data = [
    ("CC(=O)OC(C)C", "inactive"),
]

// outcome(item) with item = CC(C)c1ccccc1
inactive

// outcome(item) with item = CC(=O)c1ccc([N+](=O)[O-])cc1
inactive

// outcome(item) with item = Nc1cc(Cl)c([N+](=O)[O-])cc1O
inactive

// outcome(item) with item = CC(=O)Nc1ccc(C)cc1
inactive

// outcome(item) with item = Nc1c(Cl)cc(Cl)cc1Cl
inactive

// outcome(item) with item = CCCCCCCCCCCCOCC1CO1 (stereo not drawn)
inactive

// outcome(item) with item = CCCCOCCOCCSC#N
inactive

// outcome(item) with item = CCCCCCCCN
inactive

// outcome(item) with item = C=CCCCCCCC=C
inactive

// outcome(item) with item = Nc1nc(CC(=O)O)cs1
inactive

// outcome(item) with item = Cc1cccc(C)c1[N+](=O)[O-]
inactive

// outcome(item) with item = Cc1ccc2ncccc2c1
inactive

// outcome(item) with item = Cc1ccccc1C(N)=O
inactive

// outcome(item) with item = CCc1ccccc1O
inactive

// outcome(item) with item = CC/C(C)=N/O
inactive

// outcome(item) with item = CC(C)CCOC(=O)/C=C/c1ccccc1
inactive

* * *

# method: Cellular Toxicity (caspase-3) Renal Proximal Tubule (AID 667);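 also: cells exposed to compound for 16 hours at 37 °C before detection; 0% = DMSO basal and 100% = 10 µM staurosporine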
# assay-context: renal proximal tubule cells, primary cells freshly taken from rat; caspase-3 activation; series mostly up to 91.7 µM
Calls of active or inactive are those of the source. Calls come from the whole dose curve; as a rule, active = well fitted activation curve with a large enough effect; inconclusive = small, poorly fitted or top-dose-only effect, or effect the other way; inactive = flat fitted curve, though single readings scatter.
API: response.call in active, inactive

# compound, assigned-class
measured = [
    ("C1CCCC1", "inactive"),
    ("O=C(O[C@@H](C(=O)O)[C@@H](OC(=O)c1ccccc1)C(=O)O)c1ccccc1", "inactive"),
    ("C=Cc1ccccn1", "inactive"),
    ("CCOC(=O)C(C)C(C)=O (stereo unspecified)", "inactive"),
    ("COCCOC(=O)c1ccccc1C(=O)OCCOC", "inactive"),
    ("CCC(=O)/C=C/C1C(C)=CCCC1(C)C (stereo unspecified)", "inactive"),
    ("CC(C)Cc1nccs1", "inactive"),
    ("O=CNc1ccccc1", "inactive"),
]

// outcome(item) with item = CC(=O)CC(C)C
inactive

// outcome(item) with item = CC(C)CO
inactive

// outcome(item) with item = CC(=O)OCCC(C)C
inactive

// outcome(item) with item = O=[N+]([O-])c1ccc(Cl)cc1Cl
inactive

// outcome(item) with item = OCCO
inactive

// outcome(item) with item = Cc1c(C(=O)O)cccc1[N+](=O)[O-]
inactive

// outcome(item) with item = C1COC1
inactive

// outcome(item) with item = Oc1cccc(Nc2ccccc2)c1
inactive
